# System: KM12
# PROTOCOL_DETAILS: Cell viability (CellTiterGlo, 72 h), Example 1
# Type: cell-based
# CONDITION_DESCRIPTION: Homo sapiens, single agent, read-out: Cmpd. A IC50
pIC50: −log10 of the molar value.
PROPERTY_LABEL: pIC50

CHEMICAL_STRUCTURE	VALUE_OBSERVED
Cc1nc(NC(=O)N2CCC[C@H]2C(N)=O)sc1-c1ccnc(C(C)(C)C(F)(F)F)c1	< 4.97

###

# Test system: LS411N
# PROTOCOL_DETAILS: Cell viability (CellTiterGlo, 72 h), Example 1
# Type: cell-based
# CONDITION_DESCRIPTION: Homo sapiens, LS-411N, single agent, read-out: Cmpd. B IC50
PROPERTY_LABEL: IC50

MOLECULE	VALUE_OBSERVED
Cn1cnc2c(F)c(Nc3ccc(Br)cc3F)c(C(=O)NOCCO)cc21 [COMPOUND B]	54.7 nM
